# System: FMOC02_3 (patient-derived low-grade serous ovarian cancer cells)
# Test description: drug sensitivity score (DSS3, normalised partial AUC of % inhibition dose-response) (DSS (score)); higher = more sensitive (stronger inhibition of viability); extreme values may be limits of the assay
# Condition: 72 h; library: FO5A; assay format: 2D, 384-well, CellTiter-Glo

Compound: CC1=C2C[C@H]3[C@@H](CC[C@@H]4C[C@H](NS(C)(=O)=O)CC[C@@]43C)[C@@H]2CC[C@@]2(C1)O[C@@H]1C[C@H](C)CN[C@H]1[C@H]2C [Saridegib]
Study target: FMOC02_3
drug sensitivity score: 0

Compound: Cn1cc(-c2cnn3c(N)c(Br)c([C@@H]4CCCNC4)nc23)cn1 [MK-8776]
Study target: FMOC02_3
drug sensitivity score: 1.5

Compound: C=CC(=O)Nc1cccc(Nc2nc(Nc3ccc(OCCOC)cc3)ncc2F)c1 [Spebrutinib]
Study target: FMOC02_3
drug sensitivity score: 5.7

Compound: Oc1ccc2c(c1)CC[C@H](c1ccccc1)[C@@H]2c1ccc(OCCN2CCCC2)cc1 [Lasofoxifene]
Study target: FMOC02_3
drug sensitivity score: 0

Compound: CC(=O)[C@]1(O)Cc2c(O)c3c(c(O)c2[C@@H](O[C@H]2C[C@H](N)[C@H](O)[C@H](C)O2)C1)C(=O)c1ccccc1C3=O [Idarubicin]
Study target: FMOC02_3
drug sensitivity score: 9.1

Compound: Nc1ncn([C@@H]2O[C@H](CO)[C@@H](O)[C@H]2O)c(=O)n1 [Azacitidine]
Study target: FMOC02_3
drug sensitivity score: 4.7

Compound: CNC(=O)c1ccc(N2C(=S)N(c3ccc(C#N)c(C(F)(F)F)c3)C(=O)C2(C)C)cc1F [Enzalutamide]
Study target: FMOC02_3
drug sensitivity score: 0
